# tested-target: Glycogen synthase kinase-3 beta (Homo sapiens, UniProt P49841)
# Sequence (P49841 whole entry): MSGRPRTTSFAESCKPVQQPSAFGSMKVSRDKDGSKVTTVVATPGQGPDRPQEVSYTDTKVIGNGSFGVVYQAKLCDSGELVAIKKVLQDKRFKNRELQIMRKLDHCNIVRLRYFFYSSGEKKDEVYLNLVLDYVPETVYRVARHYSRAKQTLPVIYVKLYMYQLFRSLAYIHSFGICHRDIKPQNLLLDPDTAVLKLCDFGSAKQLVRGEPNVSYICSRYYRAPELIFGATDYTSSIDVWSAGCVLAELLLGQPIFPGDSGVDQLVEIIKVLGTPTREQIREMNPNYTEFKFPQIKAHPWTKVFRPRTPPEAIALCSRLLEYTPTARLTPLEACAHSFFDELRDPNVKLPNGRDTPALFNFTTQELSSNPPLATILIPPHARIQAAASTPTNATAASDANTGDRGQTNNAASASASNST
# protocol: concentration-response blocking of human GSK3B – biochemical, luminescence, cell-free homogeneous, retest, dose response (AID 434954)
pEC50: −log10 of the molar value.
parameter: pEC50

>>> obs_value("COCCNc1nc(N)c([N+](=O)[O-])c(NC2CCCCC2)n1")
5.27
>>> obs_value("N#Cc1c(-c2ccccc2)nc(SCC(=O)NC2CCCCC2)[nH]c1=O")
"< 3.52"
>>> obs_value("CCOC(=O)c1cnc2ccc(C(=O)OC)cc2c1Nc1ccc(C(=O)O)cc1")
"< 3.52"
>>> obs_value("COC(=O)c1c(C)oc2ccc(OC(=O)c3cccs3)cc12")
"< 3.52"
>>> obs_value("CSc1nc(NCCCO)c2c3c(sc2n1)CN(C)CC3")
4.53
>>> obs_value("COc1ccc2c(c1)C(=O)C(=O)N2")
"< 3.52"
>>> obs_value("O=c1c(-c2ccc(O)cc2)coc2cc(O)cc(O)c12")
"< 3.52"
>>> obs_value("CC1=NC(=O)NC(c2ccc(O)cc2)C1C(=O)OCC1CCCO1 (stereo unspecified)")
"< 3.52"
>>> obs_value("COc1cc([CH+][N-]NC(=O)COc2ccc([N+](=O)[O-])cc2)ccc1OCC(=O)N1CCOCC1")
"< 3.52"
>>> obs_value("O=C(O)c1ccc(-c2ccc(CN=Nc3ccc([N+](=O)[O-])cc3)o2)cc1")
"< 3.52"
>>> obs_value("CCC(Sc1ccc2nnc(-c3ccc(F)cc3)n2n1)C(=O)O (stereo unspecified)")
4.53

---

# tested-target: Glycogen synthase kinase-3 beta (Homo sapiens, UniProt P49841)
# protocol: concentration-response blocking of human GSK3B – biochemical, luminescence, cell-free homogeneous, retest, dose response (AID 434954)
parameter: EC50

>>> obs_value("O=C1Nc2ccccc2/C1=N/c1cccc([N+](=O)[O-])c1 [MLS001194693]")
"> 300 µM"
>>> obs_value("COc1ccc(Nc2ccccc2C(=O)O)cc1 [SMR000370544]")
"> 300 µM"
>>> obs_value("O=C(CSc1nnc(COc2ccc(Cl)cc2)o1)N1c2ccccc2CCc2ccccc21")
"> 300 µM"
>>> obs_value("COc1cccc(C(=O)NNC(=O)c2ccccc2)c1")
"> 300 µM"
>>> obs_value("CC1CCN(Cc2c(C(=O)NN=Cc3ccccc3O)nnn2-c2nonc2N)CC1 [SMR000620333]")
"0.7 µM"
>>> obs_value("CN(c1ncnc(N)c1[N+](=O)[O-])C1CCCCC1")
"2.57 µM"
>>> obs_value("Cc1nn(C)c(C)c1S(=O)(=O)N(CC(=O)Nc1nccs1)c1ccc(C(C)C)cc1 [MLS000118397]")
"> 300 µM"
>>> obs_value("CCOC(=O)CC(=O)CSc1ccc2nnc(-c3ccc(F)cc3)n2n1")
"83.8 µM"
>>> obs_value("Cn1nc(-c2ccc(Cl)cc2)nc2c(=O)n(C)c(=O)nc1-2")
"24 µM"
>>> obs_value("C=CCNc1nc(N)c([N+](=O)[O-])c(Nc2ccccc2OC)n1")
"> 300 µM"
>>> obs_value("O=C(O)c1ccccc1Nc1ccc([N+](=O)[O-])cc1")
"> 300 µM"
>>> obs_value("COc1ccc(COC(=O)C2C(C)=NC(=O)NC2c2ccc(O)c(OC)c2)cc1 (stereo unspecified)")
"> 300 µM"
>>> obs_value("COc1ccc2cc(C(=O)C3CCCN(C(=O)c4sc(C)nc4C)C3)ccc2c1 (stereo unspecified) [SMR000653741]")
"> 300 µM"
>>> obs_value("COc1ccc(S(=O)(=O)CC(=O)c2cc3cccc(C)c3oc2=O)cc1 [SMR000634140]")
"> 300 µM"
>>> obs_value("NNc1nccc(Nc2ccccc2C(=O)O)n1")
"2.92 µM"
>>> obs_value("CCOC(=O)Cc1csc(NC(=O)CSc2nc(-c3ccccc3)c(C#N)c(=O)[nH]2)n1 [MLS000690700]")
"> 300 µM"
>>> obs_value("CC1(C)CC(=O)C=C(Nc2ccccn2)C1")
"> 300 µM"
>>> obs_value("CCOC(=O)c1cnc2ccc(C)cc2c1Nc1ccc(N2CCOCC2)cc1")
"> 300 µM"
>>> obs_value("CCCCc1cc(=O)oc2cc(C)cc(OC(C)C(=O)O)c12 (stereo unspecified) [SMR000043773]")
"> 300 µM"
>>> obs_value("CC(CC(=O)N1CCN(c2cccc(Cl)c2)CC1)S(=O)(=O)c1ccc2c(c1)NC(=O)CO2 (stereo unspecified)")
"> 300 µM"
>>> obs_value("O=C(Nc1cccc2c1C(=O)NC2=O)c1ccc(-n2c(O)ccc2O)cc1")
"77.1 µM"
>>> obs_value("CCC(=O)c1c(CC)c2n3c1CC[C@H]3CCC2 [SMR000469597]")
"> 300 µM"
>>> obs_value("CCOC(=O)c1cnc2ccc(F)cc2c1Nc1ccc2c(c1)OCCO2 [SMR000198647]")
"> 300 µM"
>>> obs_value("O=c1oc(-c2cccs2)nc2sc3c(c12)CCCC3 [SMR000116853]")
"> 300 µM"
>>> obs_value("C=CCn1cc(/C=C/c2cc[n+](C)cc2)c2ccccc21")
"> 300 µM"
>>> obs_value("C=C1CSc2nc(=O)c3c4c(sc3n21)CCCC4 [MLS000108332]")
"> 300 µM"
>>> obs_value("CC(=O)Oc1ccc2occ(C(=O)c3ccccc3)c2c1")
"> 300 µM"
>>> obs_value("CCCCc1cc(=O)oc2cc(C)c(CN3CCCC3)c(O)c12")
"> 300 µM"
>>> obs_value("NS(=O)(=O)c1ccc(CCNC(=O)C(=O)c2cn(CC(=O)N3CCCC3)c3ccccc23)cc1 [MLS001235966]")
"> 300 µM"
>>> obs_value("CCOC(=O)CCNCC1COc2ccccc2O1 (stereo unspecified)")
"> 300 µM"
>>> obs_value("CSc1nc(SCC(=O)NC(c2ccccc2)c2ccccc2)c2c3c(sc2n1)CN(C)CC3")
"> 300 µM"
>>> obs_value("N#Cc1c(N)n(-c2cccc(O)c2)c2nc3ccccc3nc12 [SMR000413688]")
"> 300 µM"
>>> obs_value("Cc1cc(N2CCN(C(=O)c3ccco3)CC2)c2ccccc2n1 [SMR000460267]")
"> 300 µM"
>>> obs_value("Nc1nonc1-n1nnc(C(=O)NN=Cc2c(Cl)cccc2Cl)c1CN1CCOCC1")
"55.2 µM"
>>> obs_value("COCC/N=C1\\Sc2nc3c(C)cccc3cc2CN1Cc1ccco1 [SMR000122349]")
"> 300 µM"
>>> obs_value("CSc1nc2n(n1)C(c1cccs1)C1C(=O)CCCC1=N2 (stereo unspecified) [SMR000295648]")
"> 300 µM"
>>> obs_value("Cc1ccc2c(CN3CCN(Cc4ccccc4)CC3)cc(=O)oc2c1C [SMR000543581]")
"> 300 µM"
>>> obs_value("N#Cc1c(-c2cccs2)cc(-c2cccnc2)nc1N [SMR000043147]")
"10.4 µM"
>>> obs_value("CC(C)=CCc1c(O)cc2c(c1O)C(=O)CC(c1ccc(O)cc1)O2 (stereo unspecified)")
"> 300 µM"
>>> obs_value("COCCCNc1nc(N)c([N+](=O)[O-])c(Nc2ccccc2OC)n1")
"0.231 µM"
>>> obs_value("COc1cccc(CNC(=O)C2CCN(S(=O)(=O)c3ccc(-n4cnnn4)cc3)CC2)c1 [SMR000600329]")
"> 300 µM"

---

# tested-target: Glycogen synthase kinase-3 beta (Homo sapiens)
# protocol: concentration-response blocking of human GSK3B – biochemical, luminescence, cell-free homogeneous, retest, dose response (AID 434954)
pEC50: −log10 of the molar value.
parameter: pEC50

>>> obs_value("Cc1cc(C)n2nc(C(=O)NN=Cc3ccc(O)cc3)nc2n1")
4.81
>>> obs_value("COc1ccc2occ(C(=O)c3cccs3)c2c1")
5.39
>>> obs_value("Cc1ccnc(NC(=O)CCC(=O)N(CC(=O)NCCc2ccccc2)Cc2cccs2)c1")
4.67
>>> obs_value("CCNc1nc(SCC(N)=O)nc2sc3c(c12)CCN(C)C3")
4.31

---

# tested-target: Glycogen synthase kinase-3 beta (Homo sapiens)
# protocol: concentration-response blocking of human GSK3B – biochemical, luminescence, cell-free homogeneous, retest, dose response (AID 434954)
pEC50: −log10 of the molar value.
Measured pEC50 of individual entries
parameter: pEC50

>>> obs_value("CCOc1ccccc1Nc1cc(C)nc2ccc(C)cc12 [SMR000473096]")
"< 3.52"
>>> obs_value("O=C(CN1C(=O)CCC1=O)Nc1ccc(Br)cc1")
"< 3.52"
>>> obs_value("Cc1ccc(Sc2ccc(CN=O)cc2[N+](=O)[O-])cc1")
4.29
>>> obs_value("Cn1cc(S(=O)(=O)NCc2ccc(F)cc2)c(=O)n(C)c1=O")
"< 3.52"
>>> obs_value("CN(Cc1ccccc1)S(=O)(=O)c1ccc2c(c1)NC(=O)CC(=O)N2")
"< 3.52"
>>> obs_value("Cc1cc(C)c2nc(N(CCN(C)C)C(=O)c3ccc(S(=O)(=O)N(C)CC4CCCO4)cc3)sc2c1 (stereo not given) [MLS001239556]")
"< 3.52"
>>> obs_value("COC(CNC(=O)CCc1c(C)nc2c(c(C)nn2-c2ccc(C)cc2)c1C)OC")
"< 3.52"
>>> obs_value("C[C@@H]1O[C@@H](OC[C@H]2O[C@@H](Oc3c(-c4ccc(O)c(O)c4)oc4cc(O)cc(O)c4c3=O)[C@H](O)[C@@H](O)[C@@H]2O)[C@H](O)[C@H](O)[C@H]1O [3-Rhamnoglucosylquercetin]")
4.55
>>> obs_value("Cc1cc(NC(=O)CSc2ccc3nnc(-c4cccs4)n3n2)no1")
"< 3.52"
>>> obs_value("O=C(NCCO)Nc1ccc2nsnc2c1 [MLS000708760]")
"< 3.52"
>>> obs_value("CC1(C)CC(=O)C2C(=Nc3[nH]c(=S)[nH]c(=O)c3C2c2ccccc2)C1 (stereo not given)")
"< 3.52"
>>> obs_value("O=[N+]([O-])c1ccc2ccn(C3OCC(O)C(O)C3O)c2c1 (stereo not given) [SMR000283162]")
"< 3.52"
>>> obs_value("O=C(O)c1cccnc1-c1ncccc1C(=O)O")
"< 3.52"
>>> obs_value("CCN1CCN(C(=O)c2ccc3c(c2)N(Cc2ccc(F)cc2)C(=O)c2ccccc2[S+]3[O-])CC1 (stereo not given) [MLS000117749]")
"< 3.52"
>>> obs_value("CCCn1nc(NC(=O)c2cccs2)c2cc3cccc(C)c3nc21")
"< 3.52"
>>> obs_value("O=C(O)/C=C/C(=O)NCC1CCC(CNC(=O)/C=C/C(=O)O)CC1 (stereo not given)")
"< 3.52"
>>> obs_value("COc1ccccc1Nc1nc(NCCCN(C)C)nc(N)c1[N+](=O)[O-]")
5.67
>>> obs_value("N#Cc1c(N2CCCCC2)nc(N2CCCCC2)c2c1CCN(Cc1ccccc1)C2 [SMR000036037]")
5.48
>>> obs_value("CC(=O)c1cccc(NC(=O)NN2CCN(C)CC2)c1")
"< 3.52"
>>> obs_value("COc1cccc(NC2=CC(=O)CC(C)(C)C2)c1")
"< 3.52"
